measured-target: Gag-Pol polyprotein (Human immunodeficiency virus type 1 group M subtype B (isolate HXB2))
assay-procedure: HIV-1 RT RNase H inhibitor potency, dose response, biochemical, probe assessment (AID 652)
recorded-conditions: pH 8; 23 °C
IC50 reference

compound | unit-of-measurement | operator | IC50
O=c1c(O)c(-c2ccc(O)cc2O)oc2cc(O)cc(O)c12 | µM | = | 2.11
Cc1ccc(-c2cc(C(F)F)n3ncc(C(=O)NCc4ccco4)c3n2)cc1 | µM | = | 15.3
O=C(c1ccccc1F)N1CCN(S(=O)(=O)c2ccc(S(=O)(=O)N3CCCCC3)cc2)CC1 | µM | = | 44
O=C1CC(c2ccco2)Cc2nc(Nc3nc(-c4ccccc4)c4ccccc4n3)ncc21 (configuration not stated) | µM | = | 13.7
COc1ccccc1-c1nnc2n1N=C(c1ccc(O)c(O)c1)CS2 | µM | = | 1
c1ccc2c(c1)nnn2Cc1nnc2sc(-c3ccncc3)nn12 | µM | = | 2.1
CC(C)Cc1cc(C(=O)Nc2sc3c(c2C#N)CCCC3)no1 | µM | = | 4.76
N#Cc1c(SCC(=O)Nc2nccs2)nc2c(c1-c1ccco1)CCCC2 | µM | = | 4.3
COC(=O)c1ccccc1NC(=O)c1sc(=S)n(C)c1N | µM | = | 4.43
CC1(C)Cc2[nH]c(=S)c(C#N)cc2CO1 | µM | = | 4.03
CCOC(=O)c1c(NC(=O)c2ccc(-n3cnnn3)cc2)sc2c1CCCC2 | µM | = | 2.81
O=C(Nc1nc(-c2ccncc2)cs1)c1ccco1 | µM | = | 5.64
CCOC(=O)C(C(C)=O)c1c(Br)c(O)c(O)c2c(C(=O)c3ccc(C)cc3)coc12 (configuration not stated) | µM | = | 0.421
CCOc1ccc(S(=O)(=O)Nc2cc(Sc3nnc[nH]3)c3oc(=O)sc3c2)cc1 | µM | = | 2.53
C=CCn1c(=O)c(C(=O)Nc2nnc(C)s2)c(O)c2ccccc21 | µM | = | 16.8
Nc1nnc(CSCc2ccc(F)cc2)s1 | µM | > | 50
N#Cc1c(NC(=O)c2ccc(Cn3cc(Br)cn3)o2)sc2c1CCCCCC2 | µM | = | 1.38
O=C(Nc1ccc(N2CCOCC2)cc1)c1ccc2nc(-c3ccco3)c(-c3ccco3)nc2c1 | µM | = | 22.6
c1ccc(Cc2nn3c(Cn4nnc5ccccc54)nnc3s2)cc1 | µM | = | 1.84
COc1ccc(-n2c(SCC(=O)N3CCCC3)nc3c([nH]c4ccccc43)c2=O)cc1 | µM | = | 16.6
O=C(CCN1C(=O)c2ccccc2C1=O)Nc1ccc(-c2nc3ccccc3o2)cc1 | µM | = | 5.8
C=CCc1c(C)nc(S)c(C#N)c1C | µM | = | 7.25
CCC1CCCCN1S(=O)(=O)c1ccc(S(=O)(=O)N2CCN(S(=O)(=O)CC)CC2)cc1 (configuration not stated) | µM | = | 12.3
Cc1cccc(C)c1NC(=O)CSCC(=O)c1ccc(O)c(O)c1 | µM | = | 3.8
CCOc1ccc(-n2c(=O)c3c4c(sc3n(CC(=O)NCc3ccco3)c2=O)CCC4)cc1 | µM | = | 22.4
Cc1sc(NC(=O)c2oc3ccccc3c2C)c(C#N)c1C | µM | = | 10.8
O=C1CC(c2ccccc2)Cc2nc(N3CCc4ccccc43)ncc21 (configuration not stated) | µM | = | 5.87
Cc1ccc(-n2nc(C)c3c2NC(=O)CSC3c2ccc3c(c2)OCO3)cc1 (configuration not stated) | µM | = | 5.2
Cc1noc(C)c1CSc1nc2cc(S(=O)(=O)N3CCOCC3)ccc2o1 | µM | = | 2.3
Cc1cc(C)c(C#N)c(=N)o1 | µM | = | 0.298
COc1cc(OC)c(C2CC(=O)N3CN(C)CSC3=C2C#N)cc1OC (configuration not stated) | µM | = | 14.5
CC(C)CNC(=O)c1c(N)n(N=Cc2ccccn2)c2nc3ccccc3nc12 | µM | = | 9.34
COC(=O)c1ccc2c(c1)N(Cc1nc(-c3cccc(C)c3)oc1C)C(=O)C1CCCN21 (configuration not stated) | µM | = | 5.97
O=C1CCCC(=O)C1C(C#Cc1ccccc1)C1C(=O)CCCC1=O | µM | = | 1.08
O=S(=O)(NS1=CC=CCN1S(=O)(=O)c1ccccc1)c1ccccc1 (configuration not stated) | µM | = | 4.33
CCC(C)c1ccc2oc(-c3ccc(NC(=O)c4nnc[nH]4)cc3)nc2c1 (configuration not stated) | µM | = | 6.07
COc1ccc(C2c3c(oc4ccc(Cl)cc4c3=O)C(=O)N2Cc2ccco2)cc1OC (configuration not stated) | µM | = | 13.5
O=C(CSc1nc2ccccc2c2nc3ccccc3n12)NCc1ccco1 | µM | = | 8.73
Nc1c(C(=O)N2CCCCC2)sc(=S)n1-c1ccccc1 | µM | = | 1.85
O=C(CSc1nc2sc3c(c2c(=O)n1-c1ccccc1)CCCC3)NCc1ccco1 | µM | = | 17.2
Fc1ccc(-c2nnc3sc(-c4ccc5c(c4)OCO5)nn23)cc1 | µM | = | 3.92
CCc1ccccc1N1CSC2=C(C#N)C(c3ccccc3F)CC(=O)N2C1 (configuration not stated) | µM | = | 1.22
